- EXPERIMENTAL TARGET: Heat shock factor protein 1 (Mus musculus, UniProt P38532)
- Sequence (P38532 whole entry): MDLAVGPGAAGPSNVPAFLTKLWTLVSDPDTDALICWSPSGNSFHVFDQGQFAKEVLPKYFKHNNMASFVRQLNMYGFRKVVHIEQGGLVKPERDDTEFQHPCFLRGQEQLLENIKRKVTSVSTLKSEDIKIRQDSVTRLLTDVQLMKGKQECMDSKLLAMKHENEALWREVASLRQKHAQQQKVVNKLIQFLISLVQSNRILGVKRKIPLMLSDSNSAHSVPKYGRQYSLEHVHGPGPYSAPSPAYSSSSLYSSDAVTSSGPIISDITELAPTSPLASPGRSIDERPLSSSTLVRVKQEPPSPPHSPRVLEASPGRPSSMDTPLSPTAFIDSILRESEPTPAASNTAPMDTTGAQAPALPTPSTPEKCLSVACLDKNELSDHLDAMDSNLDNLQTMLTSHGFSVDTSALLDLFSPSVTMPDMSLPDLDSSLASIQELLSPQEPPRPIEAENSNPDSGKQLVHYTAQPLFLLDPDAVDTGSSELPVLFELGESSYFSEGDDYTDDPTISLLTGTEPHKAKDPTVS
- TEST DETAILS: inhibition of MG132-induced HSE-luciferase signal, confirmation, cell-based, NIH3T3, luminescence, dose retest (AID 2382);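 note: NIH3T3 fibroblasts with HSF1-driven luciferase reporter stressed by proteasome inhibitor MG132; luminescence from HSF1-driven luciferase expression after 8 hours of MG132 stress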
- Format: functional
Activity calls are given as the source filed them. Cut-off read from the data, not from the text of the source: actives have a measured EC50 and inactives only a lower limit.
OUTCOME MEASURE: EC50

// worked examples, EC50 included
Cc1ccc(S(=O)(=O)N2CCC(C(=O)N[C@@H](Cc3ccccc3)C(=O)O)CC2)cc1 ... > 195 µM (not active)
CCc1ccn2cc(-c3cc(-c4ccccc4)no3)nc2c1 ... < 0.16 µM (active)
CCOc1ccc(N2C(=O)/C(=C\NNc3nnc(C)c(O)n3)c3ccccc3C2=O)cc1 ... > 195 µM (not active)
COc1ccc(C[C@H]2NC[C@H](O)[C@H]2OC(C)=O)cc1 [ANISOMYCIN] ... 0.243 µM (active)

GET /values?item= `Cc1noc(C)c1C(=O)N1CCC(C(=O)c2ccccc2)CC1` &system= Heat shock factor protein 1 (Mus musculus, UniProt P38532) returns EC50: > 195 µM (not active)

Field EC50 (system: Heat shock factor protein 1 (Mus musculus, UniProt P38532)) for entry `Cc1cc(C)c2nc(C(F)(F)F)c(C#N)c(N)c2c1` = 3.15 µM (active)

Entry `COc1ccc(NC(=S)N2CCC(c3nc4ccc(Cl)cc4[nH]3)CC2)c(OC)c1` ; assay system Heat shock factor protein 1 (Mus musculus, UniProt P38532); EC50 recorded at > 195 µM (not active)

Recorded EC50 for `Cc1cccc(C(=O)NC(=S)NNC(=O)c2ccccc2Cl)c1` on Heat shock factor protein 1 (Mus musculus, UniProt P38532) was > 195 µM (not active)

Result for Cn1ccnc1C1CCCCN1C(=O)c1cc(COc2ccc(F)cc2Cl)on1 (configuration not stated) , tested on Heat shock factor protein 1 (Mus musculus, UniProt P38532), EC50: > 195 µM (not active)

Measured EC50 for this entry `CC1(C)Cc2c(C#N)c(SCCC#N)nc(N3CCOCC3)c2CO1` on Heat shock factor protein 1 (Mus musculus, UniProt P38532): > 195 µM (not active)

Considering COCC1CCCCN1C(=O)c1cc(COc2ccc3ncccc3c2)on1 (configuration not stated) , its EC50 with Heat shock factor protein 1 (Mus musculus, UniProt P38532) was recorded as > 195 µM (not active)

Entry `c1ccc(Cn2c[n+](Cc3ccccc3)cn2)cc1` , tested on Heat shock factor protein 1 (Mus musculus, UniProt P38532), has a reported EC50 of > 195 µM (not active)
